Hi there, I'd appreciate the recorded half-life for every entry that follows.
- METHOD_SUMMARY: Terminal elimination half life in iv dosed Han Wistar rat
- Format: ADME, organism-based
- CONDITION_NOTES: in vivo
# unit: min | format: bare number

Output measured half-life for this item: CCCC[C@H](NC(=O)O[C@H](Cn1cnc2cc(Cl)c(Cl)cc21)C(C)(C)C)C(=O)CNS(=O)(=O)c1ccccn1 46

State, in one line, measured half-life of CC(C)C[C@H](NC(=O)c1cc2ccccc2o1)C(=O)N[C@@H](C)C(=O)CNS(=O)(=O)c1ccccn1 33

Output half-life of CCCC[C@H](NC(=O)O[C@H](Cn1ccc(C(F)(F)F)n1)C(C)(C)C)C(=O)CNS(=O)(=O)c1ccccn1 24

Identify measured half-life corresponding to CCCC[C@H](NC(=O)O[C@H](Cn1ccc(-c2ccc(C(F)(F)F)cc2)n1)C(C)(C)C)C(=O)CNS(=O)(=O)c1ccccn1 120

For the compound CCCC[C@H](NC(=O)O[C@H](Cn1ccc(-c2ccc(C(F)(F)F)cc2)n1)C(C)(C)C)C(=O)C(=O)Nc1ccn[nH]1 , give its reported half-life. 320

Item CCCC[C@H](NC(=O)O[C@H](Cn1cnc(-c2ccc(C(F)(F)F)cc2)c1)C(C)(C)C)C(=O)CNS(=O)(=O)c1ccccn1 : provide half-life 67

Look up and state reported half-life for CCCC[C@H](NC(=O)O[C@H](Cn1ccc(-c2ccncc2)n1)C(C)(C)C)C(=O)CNS(=O)(=O)c1ccccn1 120

Supply half-life value. Item: C[C@H](NC(=O)O[C@H](Cn1ccc(-c2ccc(C(F)(F)F)cc2)n1)C(C)(C)C)C(=O)CNS(=O)(=O)c1ccccn1 32

Cited source for all entries: ChEMBL document CHEMBL1146330
